# System: MS2 coat protein
# assay-remarks: apparent KD of MS2 coat protein; higher = weaker reporter binding
# reported-conditions: Eterna round: R107; input ligand: arginine 13.2 mM
measured-attribute: apparent KD of MS2 coat protein (µM)

>>> endpoint_result("UACAUGAGGAUCACCCAUGUAUGAAUAGAUACCAGCGAAAAUAAGCGCCCUUGGCAGCUAGUGAAUAAAGGGUGGGUAAAAUAAU [Exclusion Theophyline A GF 2]")
0.0083
>>> endpoint_result("GCAUCCUAGUCGGCCGCCACUGCAUCACCGGUCCUAGGUGAUCAACAUGAGGAUCACCCAUGUAGCAGGACCGGGACUAGGAUGC [(Trp1)-(MT)''-(MT)'-(Ms2)-(Trp2)_Design2]")
0.345
>>> endpoint_result("AUUUAUGGUCGUGAUACCAGACAUACAUGAGGAUCACCCAUGUGAAAUAACAUAAUUUAGGUCCCUUGGCAGCACUUUUUAAUUA [JR_Nu_SSTheophyB_Sub020]")
0.0439
>>> endpoint_result("AUACAUGAGGAUCACCCAUGUAUAGUUGAAGGAGCGACCAGAGGGUCAGGUAGGUCGCAGCACAUGAGGAUCACCCAUGUAUUUU [#1 Exclusion - Arginine A Attempt #14 (Inspired by Pi)]")
0.0326
>>> endpoint_result("UCCAUCGGCGGAAGCCGAUGGUUUACAGAAGGAGCGUAGGAAACUACAGGUAGGUCGCUGGACAUGAGGAUCACCCAUGUGUUUU [SSAA #12]")
0.0244
>>> endpoint_result("GGGCCCGGGCCGCGCGCGGCCCGGGCCCAACGAGGACCGGUACGGCCGCCACUCGAACGAGUGGGUACAUGAGGAUCACCCAUGU [Aaa]")
0.0257
>>> endpoint_result("AGGAAGACGAUGGAUACCAGACAACCAGGGAACAUGAGGAUCACCCAUGUGAUUGAAAGGGUCCCUUGGCAGCCAGAAGCCGUUG [theeternabot_sameState_MS2_Theo_B_31]")
0.0685
>>> endpoint_result("CCGAACAUGAGGAUCACCCAUGUUAGGGAUACCAGCUCAGACAUGGGCCCUUGGCAGCUCUAUAGCUGACGAAAGUCAGCAUCGG [#15 SameState-TheophyllineA]")
0.0361
>>> endpoint_result("UGUAUGUGAUCUGAUACCAGAGAUGAUAACCUGAGGAUCACCCUGGUAAGGCGAAAGCCACUCCCUUGGCAGCAGAUCGCAUACU")
0.0483
>>> endpoint_result("AAAGUUGAUGAGUUGCGUUUGUGUUCCGAAGGAGCGAGAAUUAUCUCAGGUAGGUCGCGGAACAUGAGGAUCACCCAUGUAUAAA [XArg-A 19 NuV1&2 original #dotplot2>1]")
0.0353
>>> endpoint_result("GUGCCGCAUUCACAUGAGGAUCACCCAUGUCGAGGACCGGUACGGCCGCCACUCGACGUGCUUACAGGUCCUUUACGGCCCAAUA [Biedxele]")
0.0307
>>> endpoint_result("UUGUGGCGCUCGGCCGCCACUCCGACAUGAGGAUCACCCAUGUUCUACAUGAGGAUCACCCAUGUGAGGACCGGGAGACACUUCC [Exclusion Tryptophan B GF13]")
0.053
